# MEASURED ON: Mitogen-activated protein kinase kinase kinase 14 (Homo sapiens, UniProt Q99558)
# Sequence (Q99558 whole entry): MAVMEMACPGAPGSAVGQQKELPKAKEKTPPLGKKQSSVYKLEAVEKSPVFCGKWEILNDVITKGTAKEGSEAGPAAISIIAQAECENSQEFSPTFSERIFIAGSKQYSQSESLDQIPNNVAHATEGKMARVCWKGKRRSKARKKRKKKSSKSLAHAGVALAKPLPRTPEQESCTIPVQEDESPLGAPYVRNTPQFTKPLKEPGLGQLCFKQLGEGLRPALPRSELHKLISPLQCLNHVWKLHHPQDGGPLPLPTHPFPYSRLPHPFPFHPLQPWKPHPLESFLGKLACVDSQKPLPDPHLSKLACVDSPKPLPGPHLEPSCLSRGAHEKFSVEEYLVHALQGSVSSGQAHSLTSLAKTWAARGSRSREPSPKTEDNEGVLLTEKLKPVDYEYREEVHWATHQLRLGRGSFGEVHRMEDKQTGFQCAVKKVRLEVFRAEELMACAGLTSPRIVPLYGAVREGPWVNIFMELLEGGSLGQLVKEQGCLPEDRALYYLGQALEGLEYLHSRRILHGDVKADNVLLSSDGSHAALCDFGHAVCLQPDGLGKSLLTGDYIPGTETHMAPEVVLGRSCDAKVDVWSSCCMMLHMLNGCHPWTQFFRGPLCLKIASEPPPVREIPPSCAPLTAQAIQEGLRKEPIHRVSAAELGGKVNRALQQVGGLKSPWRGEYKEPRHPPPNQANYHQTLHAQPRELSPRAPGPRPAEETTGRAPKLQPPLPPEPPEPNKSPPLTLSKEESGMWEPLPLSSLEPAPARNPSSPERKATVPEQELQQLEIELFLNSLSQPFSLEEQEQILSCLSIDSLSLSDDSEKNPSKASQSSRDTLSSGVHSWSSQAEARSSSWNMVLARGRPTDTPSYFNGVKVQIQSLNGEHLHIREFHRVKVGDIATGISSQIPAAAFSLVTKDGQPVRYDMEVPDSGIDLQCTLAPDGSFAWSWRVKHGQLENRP
# METHOD DESCRIPTION: Inhibition of NIK in human HT-29 cells assessed as LTalpha/beta2-induced p100 processing to NFkappaB2 preincubated for 30 mins before LTalpha/beta2 stimulation measured after 5 hrs
# Assay type: cell-based
pIC50: −log10 of the molar value.

ITEM SMILES	pIC50
COCCOc1cnc(N)nc1-c1c[nH]c2ccc(C#CC(C)(C)O)cc12	7.70
Cc1nc2ccc(Cl)cn2c1-c1ccnc(N)n1	4.80
Nc1ncc2c(n1)-c1c([nH]c3ccc(Br)cc13)CCC2	5.34

###

# MEASURED ON: Mitogen-activated protein kinase kinase kinase 14 (Homo sapiens)
# METHOD DESCRIPTION: Inhibition of NIK (unknown origin) autophosphorylation after 1 hr by chemiluminescent assay
// values below are reported IC50
ENDPOINT LABEL: IC50 (nM)

COMPOUND	BOUND TYPE	READOUT NUMBER
Nc1ncc2c(n1)-c1c([nH]c3ccc(Cl)cc13)CCC2	=	70
COc1ccc2[nH]cc(-c3ccnc(N)n3)c2c1	=	24000
Nc1ncc2c(n1)-c1c([nH]c3ccc(Cl)cc13)CCCC2	=	21000
CC(O)c1ccc(-c2ccc3[nH]c4c(c3c2)-c2nc(N)ncc2CCC4)cc1 (stereo not given)	=	24000
Cc1nc2ccc(Cl)cc2n1-c1ccnc(N)n1	=	4000
N#Cc1ccc2ccn(-c3ccnc(N)n3)c2c1	=	63
N#Cc1ccc2[nH]cc(-c3ccnc(N)n3)c2c1	=	63
Cc1nc2c(C)cccn2c1-c1ccnc(N)n1	>	80000
Nc1nccc(-c2c[nH]c3ccccc23)n1	=	41000
Cc1ccn2c(-c3ccnc(N)n3)c(C)nc2c1	>	80000
Nc1nccc(-n2cnc3ccc(Cl)cc32)n1	=	310
Nc1ncc2c(n1)-c1c([nH]c3ccc(Br)cc13)CCC2	=	100
Nc1ncc2c(n1)-c1c([nH]c3ccc(C#Cc4cccnc4)cc13)CCC2	=	30000
Nc1nccc(-c2c[nH]c3ccc(F)cc23)n1	=	1800
Cc1[nH]c2ccc(Cl)cc2c1-c1ccnc(N)n1	=	300
Cc1cnc(N)nc1-c1c[nH]c2ccc(Cl)cc12	=	110
Nc1nccc(-n2ccc3ccc(Br)cc32)n1	=	89
Cc1nc2ccc(Cl)cn2c1-c1ccnc(N)n1	=	600
COCCOc1cnc(N)nc1-c1c[nH]c2ccc(C#CC(C)(C)O)cc12	=	40
Nc1ncc2c(n1)-c1c([nH]c3ccc(Cl)cc13)CC2	=	1200
Cn1cncc1C#Cc1ccc2[nH]c3c(c2c1)-c1nc(N)ncc1CCC3	=	30000
Nc1nccc(-n2ccc3ccc(Cl)cc32)n1	=	76
CC(O)c1ccc(-c2ccc3[nH]c4c(c3c2)-c2nc(N)ncc2CCC4)s1 (stereo not given)	=	15000
Cc1nc2ccccn2c1-c1ccnc(N)n1	>	80000
Nc1ncc2c(n1)-c1c[nH]c3ccc(Cl)c(c13)CC2	=	2600
